# key: entry, value: Activity
Target: Alpha-2A adrenergic receptor (Homo sapiens)
Experiment: Agonist activity at recombinant human alpha-2a adrenergic receptor at 10 uM by GTPgamma[35S] binding-based assay relative to agonist
Format: functional

CN(CCCNC(=O)c1ccc([N+](=O)[O-])cc1)Cc1ccccc1    -5%
CN(CCNC(=O)c1ccc(C#N)cc1)Cc1ccccc1    -1%
CN(CCCNC(=O)c1ccc(Br)cc1)Cc1ccccc1    3%
CN(CCCNC(=O)c1ccc(Cl)cc1)CCc1ccccc1    -3%
CN(CCCNC(=O)c1ccc(C(F)(F)F)cc1)Cc1ccccc1    -2%

Lookup result for CN(CCNC(=O)c1ccc([N+](=O)[O-])cc1)Cc1ccccc1 ; measured Activity: -1%

Lookup result for COc1ccc(C(=O)NCCCN(C)Cc2ccccc2)cc1 ; measured Activity: -1%

Lookup result for CN(CCCNC(=O)c1ccc(Cl)cc1)Cc1ccccc1 ; measured Activity: -2%

Lookup result for COc1cccc(C(=O)NCCCN(C)Cc2ccccc2)c1 ; measured Activity: 0%

Lookup result for CCCc1ccc(C(=O)NCCCN(C)Cc2ccccc2)cc1 ; measured Activity: 1%

Lookup result for CN(CCCNC(=O)c1cccc(Br)c1)Cc1ccccc1 ; measured Activity: -3%

Lookup result for CN(CCNC(=O)c1ccc(Cl)cc1)Cc1ccccc1 ; measured Activity: -3%

Hey, just so you know, these numbers are from ChEMBL document CHEMBL4130363.
